Measured EC50 values are reported for all entries that follow.
- System: Human alphaherpesvirus 3
- assay explanation: In vitro effective concentration required to inhibit varicella zoster virus (VZV) replication in HFF cell line
- Assay type: functional, organism-based
- applied conditions: Human alphaherpesvirus 3, HFF

chemical string	EC50
Nc1nc(NC2CC2)c2ncn(/C=C3/CC3(CO)CO)c2n1	> 66 µM

// `Cc1cn(/C=C2/CC2(CO)CO)c(=O)[nH]c1=O` : EC50 value = > 420 µM

// `Cc1cn(/C=C2\CC2(CO)CO)c(=O)[nH]c1=O` : EC50 value = > 420 µM

// `Nc1ccn(/C=C2/CC2(CO)CO)c(=O)n1` : EC50 value = > 448 µM

// `Nc1nc(NC2CC2)c2ncn(/C=C3\CC3(CO)CO)c2n1` : EC50 value = > 331 µM

// `Nc1nc2c(ncn2/C=C2/CC2(CO)CO)c(=O)[nH]1` : EC50 value = > 380 µM

// `Nc1ncnc2c1ncn2/C=C1\CC1(CO)CO` : EC50 value = 11.7 µM

// `Nc1nc2c(ncn2/C=C2\CC2(CO)CO)c(=O)[nH]1` : EC50 value = > 357 µM

// `Nc1ncnc2c1ncn2/C=C1/CC1(CO)CO` : EC50 value = > 404 µM

// `Nc1ccn(/C=C2\CC2(CO)CO)c(=O)n1` : EC50 value = > 448 µM

----------
- System: Human gammaherpesvirus 4
- assay explanation: In vitro cytotoxic concentration required to inhibit Epstein-Barr virus (EBV) replication in Daudi cells
- Type: functional
- applied conditions: human gammaherpesvirus 4, Daudi
Measured CC50 values are reported for all entries that follow.

chemical string	CC50
Nc1nc(F)c2ncn(C=C3CC3(CO)CO)c2n1	> 189 µM
Nc1nc2c(ncn2/C=C2/CC2(CO)CO)c(=O)[nH]1	74 µM
Nc1nc2c(ncn2/C=C2\CC2(CO)CO)c(=O)[nH]1	> 190 µM
Nc1nc(Cl)c2ncn(C=C3CC3(CO)CO)c2n1	> 178 µM
Nc1nc(NC2CC2)c2ncn(/C=C3\CC3(CO)CO)c2n1	> 165 µM

// `Nc1ncnc2c1ncn2/C=C1\CC1(CO)CO` : CC50 value = > 202 µM

// `Cc1cn(/C=C2\CC2(CO)CO)c(=O)[nH]c1=O` : CC50 value = > 210 µM

----------
- Test system: Human betaherpesvirus 5
- assay explanation: In vitro cytotoxic concentration required to inhibit towne strain of human cytomegalovirus (HCMV) replication in HFF cell line
- Type: functional
- applied conditions: Human betaherpesvirus 5, HFF
Measured CC50 values are reported for all entries that follow.

Below: 5 compounds and their reported CC50.
compound	measured on	measured
Nc1ccn(/C=C2\CC2(CO)CO)c(=O)n1	Human betaherpesvirus 5	> 100 µM
Nc1ncnc2c1ncn2/C=C1/CC1(CO)CO	Human betaherpesvirus 5	100 µM
Nc1nc2c(ncn2/C=C2\CC2(CO)CO)c(=O)[nH]1	Human betaherpesvirus 5	> 100 µM
Nc1nc2c(ncn2COC(CO)CO)c(=O)[nH]1 [GANCICLOVIR]	Human betaherpesvirus 5	> 100 µM
Nc1nc(NC2CC2)c2ncn(/C=C3/CC3(CO)CO)c2n1	Human betaherpesvirus 5	> 100 µM

// `Nc1ncnc2c1ncn2/C=C1\CC1(CO)CO` : CC50 value = > 100 µM

// `Cc1cn(/C=C2/CC2(CO)CO)c(=O)[nH]c1=O` : CC50 value = > 100 µM

// `Nc1ccn(/C=C2/CC2(CO)CO)c(=O)n1` : CC50 value = > 100 µM

// Nc1nc2c(ncn2/C=C2/CC2(CO)CO)c(=O)[nH]1 [FILOCICLOVIR] : CC50 value = > 100 µM

// `Cc1cn(/C=C2\CC2(CO)CO)c(=O)[nH]c1=O` : CC50 value = > 100 µM

// `Nc1nc(NC2CC2)c2ncn(/C=C3\CC3(CO)CO)c2n1` : CC50 value = > 100 µM

----------
- Test system: Murid betaherpesvirus 1
- assay explanation: In vitro cytotoxic concentration required to inhibit murine cytomegalovirus (MCMV) replication in MEF cell line
- Format: functional
- applied conditions: Murid betaherpesvirus 1, MEF
Measured CC50 values are reported for all entries that follow.

chemical string	CC50
Nc1ncnc2c1ncn2/C=C1/CC1(CO)CO	> 404 µM
Nc1nc2c(ncn2/C=C2\CC2(CO)CO)c(=O)[nH]1	> 380 µM
Nc1nc2c(ncn2COC(CO)CO)c(=O)[nH]1	> 35 µM
Nc1nc2c(ncn2/C=C2/CC2(CO)CO)c(=O)[nH]1	> 380 µM
COc1nc(N)nc2c1ncn2C=C1CC1(CO)CO	> 361 µM

For the next question, use this molecule.
// `Nc1ccn(/C=C2/CC2(CO)CO)c(=O)n1` : CC50 value = > 448 µM

----------
- System: Human gammaherpesvirus 4
- assay explanation: In vitro cytotoxic concentration required to inhibit Epstein-Barr virus (EBV) replication in Daudi cells
- Type: functional
- applied conditions: human gammaherpesvirus 4, Daudi
Measured CC50 values are reported for all entries that follow.

chemical string	CC50
Nc1ccn(/C=C2/CC2(CO)CO)c(=O)n1	70 µM
Nc1nc(N)c2ncn(C=C3CC3(CO)CO)c2n1	191 µM

For the next question, use this compound.
// `Nc1ncnc2c1ncn2/C=C1/CC1(CO)CO` : CC50 value = > 202 µM
